FYI, the data here is from paper PMC6683157.

- study-system: Csm2 (wild type);Psy3 (wild type) (Saccharomyces cerevisiae;Saccharomyces cerevisiae) (UniProt P40465+Q12318)
- Sequence 1: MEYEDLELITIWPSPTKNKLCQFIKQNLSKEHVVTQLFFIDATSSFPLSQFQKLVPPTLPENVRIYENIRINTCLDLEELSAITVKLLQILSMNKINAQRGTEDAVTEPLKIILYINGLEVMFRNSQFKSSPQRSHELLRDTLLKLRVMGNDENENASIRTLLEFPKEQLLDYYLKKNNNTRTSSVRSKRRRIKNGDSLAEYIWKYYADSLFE
- Sequence 2: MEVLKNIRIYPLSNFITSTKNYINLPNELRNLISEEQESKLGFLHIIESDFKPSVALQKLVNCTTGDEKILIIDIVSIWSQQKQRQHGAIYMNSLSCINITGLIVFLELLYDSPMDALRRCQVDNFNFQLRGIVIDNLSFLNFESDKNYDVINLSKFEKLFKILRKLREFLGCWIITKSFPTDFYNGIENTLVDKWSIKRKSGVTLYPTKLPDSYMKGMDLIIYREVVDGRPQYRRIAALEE
- protocol-notes: fluorescence anisotropy
- condition-parameters: heparin preparation; N31 of strand 1 = THF abasic analog; Anisotropy: 20 mM Tris pH 8.0, 20-25 nM DNA (2.5-5 nM in Fig 4d), protein titrated from 1 M NaCl …; EMSA: 25 mM Tris-HCl pH 8.0, 50 mM NaCl, 1 mM DTT, 100 u
pKd: −log10 of the molar value.
In this section we review reported pKd values for a set of sequences.
metric: pKd

[[record]]
ordered_residues = "CAGTGCCGAAGCTTGTCAAGTTTTTTTTTTNTTTTTTTTT / TTTTTTTTTTTTTTTTTTTTCTTGACAAGCTTGCGCACTG [AP5 double-flap]"
metric = "pKd"
assay_result = 6.85

[[record]]
ordered_residues = "TTTTTTTTTTTTTTTTTTTTCTTGACAAGCNTGCGCACTG / CAGTGCGCAAGCTTGTCAAGTTTTTTTTTTTTTTTTTTTT [AP4 double-flap]"
metric = "pKd"
assay_result = 6.88

